Assay: Distribution coefficient analysis (LogD7.4), n-octanol/PBS
Assay type: physicochemical
Settings: pH 7.4, single measurements (Run 1-3, a-c), read-out: LogD7.5
measure name: logD

Enquiry: Return value of logD for input CC1(C)OC(=S)Nc2ccc(-c3cccnc3[18F])cc21 [[^18F]2] , no commentary.
Return: 1.67

----------
Experiment: In vitro non-radioactive metabolite analysis and clearance in HLM
Format: in vitro ADME, human
Conditions: human, human liver microsomes; HLM 1 mg/ml, NADPH 1 mM, 37 °C
measure name: microsomal CLint (µL/min/mg)
# number only, unit µL/min/mg dropped from output

Enquiry: Tell me microsomal CLint reported for CC1(C)OC(=S)Nc2ccc(-c3cccnc3F)cc21 [Compound 2]
Return: 56

These data points were gathered from paper PMC6328429.
